# System: Yap1 mRNA
# Protocol Details: Dose-dependent inhibition of human Yap1 in SNU-449 cells (Example 9, RTS36584)
# Type: cell-based
# Test Parameters: 125.0 nM, free uptake, approximately 48 hours
Strand notation (5' to 3'): a small letter for the sugar, then the base; units joined by * are phosphorothioate-linked, units joined directly phosphodiester-linked; [ ] holds rarer units or linkages, { } end groups; capitals alone tell only the bases. e = 2'-O-(2-methoxyethyl) (MOE); k = constrained ethyl (cEt); [5mC] = 5-methylcytosine; d = 2'-deoxy (DNA); m = 2'-O-methyl
// class assignment uses % UTC (Yap1 mRNA) with these ranges: class A = under 40 % UTC, class B = from 40 % UTC up to 50 % UTC, class C = 50 % UTC and over

Could you tell me which band 1198526 (kA*kA*dG*dT*dG*dT*dA*dT*dG*dT*d[5mC]*eA*kG*eA*kA*eG; antisense) [compound 1198526] belongs to?
class A

Hello team, could you let me know which band the following substance falls into: 1198380 (kA*dG*dA*dG*dT*dA*dT*dG*dT*dG*dG*k[5mC]*eA*kA*eT*kA; antisense) [compound 1198380]
class C

Category lookup for the substance 1198610 (kT*kG*kT*dA*dT*dG*dT*d[5mC]*dA*dG*dA*dA*kG*kA*kG*eT; antisense) [compound 1198610]
class A

The entry to classify is 1198569 (CACTTTTACATTAGGA; modified gapmer, chemistry not fully specified) [compound 1198569] ; which class holds it?
class B

Which band does 1198440 (AAGTGTATGTCAGAAG; cEt, 2'-MOE, 5-methylcytosine, phosphorothioate modifications, further chemistry not given here) [compound 1198440] fall in?
class A

// bin(item) where item = 1074462 (kG*kG*kA*dA*dA*dT*dT*dG*dT*d[5mC]*dT*d[5mC]*dA*kT*kG*k[5mC]; antisense) [compound 1074462]
class A

Lab note: sort 1076187 (kG*kA*kT*dT*dT*dA*dG*dG*dA*dT*dG*d[5mC]*dA*kT*kG*kG; antisense) [compound 1076187] into the matching % UTC (Yap1 mRNA) band.
class B

Exam item: assign 1198550 (kA*kT*kA*dT*dG*dG*dA*dA*dA*dT*dT*dG*kT*k[5mC]*kT*e[5mC]) [compound 1198550] to the correct category.
class C

Sort 1074798 (kG*k[5mC]*kT*dT*dT*dG*dG*dA*dA*dG*dA*dT*d[5mC]*kT*kG*kA) [compound 1074798] into one of the categories.
class A

Assign a bin to 1200797 (kA*kT*kT*dA*dG*mA*dG*dT*dA*dT*dG*dT*dG*kG*k[5mC]*kA; antisense) [compound 1200797]
class C

Dear colleague, I would appreciate it if you could identify the bin for 1198856 (k[5mC]*kT*dT*dA*dT*dA*dT*dG*dG*dT*dT*kT*eT*kG*eT*kG; antisense) [compound 1198856] and reply at your convenience.
class C

Field: class (% UTC (Yap1 mRNA)) — entry: 1197223 (kT*kA*kA*dG*dT*dA*dA*dG*dG*dT*dT*dT*d[5mC]*k[5mC]*k[5mC]*kA; antisense) [compound 1197223]
class C

Hi there! Could you help me figure out the category for 1198286 (kA*kA*kT*dT*dG*dT*d[5mC]*dT*d[5mC]*dA*dT*dG*k[5mC]*e[5mC]*kT*eT; antisense) [compound 1198286] please?
class B

Category lookup for the substance 1074756 (kG*k[5mC]*kA*d[5mC]*dT*dT*dT*dT*dA*d[5mC]*dA*dT*dT*kA*kG*kG) [compound 1074756]
class A

State the class of the substance shown: 1198439 (AGTGTATGTCAGAAGA; sugar, 5-methylcytosine, phosphorothioate modifications, further chemistry not given here) [compound 1198439]
class A

Sort into band: 1198959 (kA*kG*dT*dG*dT*dA*dT*dG*dT*d[5mC]*dA*kG*dA*kA*dG*kA; antisense) [compound 1198959]
class A

Would you mind sorting 1198642 (kT*kA*dT*dT*dA*dG*dA*dG*dT*dA*dT*dG*kT*eG*kG*e[5mC]; antisense) [compound 1198642] into the appropriate category?
class B

# bin label for 1198578 (GCTTTGGAAGATCTGA; modified gapmer, chemistry not fully specified) [compound 1198578]
class B

Field: class (% UTC (Yap1 mRNA)) — entry: 1198424 (k[5mC]*dT*d[5mC]*dT*dT*dA*dT*dA*dT*dG*dG*kT*eT*kT*eT*kG; antisense) [compound 1198424]
class B

Classify this substance: 1198696 (kT*kG*dT*dA*dT*dG*dT*d[5mC]*dA*dG*dA*dA*kG*eA*kG*eT) [compound 1198696]
class A

Which category does the recorded % UTC (Yap1 mRNA) put 1198398 (G_{ks}^{m}C_{ds}A_{ds}C_{ds}T_{ds}T_{ds}T_{ds}T_{ds}A_{ds}^{m}C_{ds}A_{ds}T_{ks}T_{es}A_{ks}G_{es}G_{k}; cEt, 2'-MOE, 5-methylcytosine, phosphorothioate modifications, as printed in the source, key not given here) [compound 1198398] in?
class C

Sort 1198295 (kT*kA*kG*dA*dG*dT*dA*dT*dG*dT*dG*dG*k[5mC]*eA*kA*eT; antisense) [compound 1198295] into one of the categories.
class B

Please let me know in which category the item 1198397 (k[5mC]*dA*d[5mC]*dT*dT*dT*dT*dA*d[5mC]*dA*dT*kT*eA*kG*eG*kA; antisense) [compound 1198397] belongs.
class C
